tested on: D54 LucT luciferase reporter counterscreen, luminescence, 24 h; test: reporter signal increase, D54 LucT cells – cell-based, luminescence, cherry pick, counter-screen for N-linked glycosylation inhibitor project, dose response (AID 624404)
Records with an inconclusive call do not appear.
assay.metric: AC35

Solved cases below.
| molecule | AC35 |
| --- | --- |
| COc1cc(NC(=O)CN2c3cccc4cccc(c34)S2(=O)=O)cc(OC)c1OC | 7530 nM |
| CCOc1ccc2c(c1)OC(c1ccc(OC)cc1)(C(F)(F)F)NC2=O (stereo not given) | 748 nM |
| Cn1c(=O)[nH]c(=O)c2c1nc(N(CCO)Cc1ccccc1)n2CCCc1ccccc1 | 547 nM |

Dear colleague, I am looking for the recorded AC35 of the following molecule: COc1ccc(/C=N/NC(=O)c2ccccc2OCc2ccccc2)c(OC)c1 1600 nM

Dear colleague, I am looking for the recorded AC35 of the following molecule: COc1ccc(CNC(=O)c2cccc3c(-c4cccc(C(N)=O)c4)coc23)cc1OC 408 nM

* * *

system: D54 LucT luciferase reporter counterscreen, luminescence, 24 h; assay: reporter signal increase, D54 LucT cells – cell-based, luminescence, cherry pick, counter-screen for N-linked glycosylation inhibitor project, dose response (AID 624404)
Results filed as inconclusive are left out.
List of AC35 values.

| molecule | AC35 |
| --- | --- |
| Cc1ccc(NC(=O)c2ccc(Cl)cc2[N+](=O)[O-])nc1 | 2.42 µM |
| CC(C)n1c(/C=C/[C@H](O)C[C@H](O)CC(=O)O)c(-c2ccc(F)cc2)c2ccccc21 | 0.37 µM |
| COc1cccc(-c2nn(C)c3sc(C(=O)NCc4ccco4)cc23)c1 | 3.35 µM |
| COc1cc2c(cc1OC)C(c1ccccc1)N(C(=O)c1ccccc1F)CC2 (configuration not stated) | 0.608 µM |
| C[C@@]12C(=O)Nc3ccc(F)cc3C(=O)N1[C@H]1c3cc(Cl)ccc3OC[C@@H]1[C@@H]2c1ccccc1 | 1.82 µM |
| Oc1ccc(-c2csc(-c3c[nH]c4ccccc34)n2)c(O)c1 | 0.697 µM |

Dear colleague, I am looking for the recorded AC35 of the following molecule: Cc1cccn2c(=O)c3cc(C(=O)N4CCC5(CC4)OCCO5)n(C)c3nc12 0.31 µM

Dear colleague, I am looking for the recorded AC35 of the following molecule: COc1cccc(Sc2ccccc2/C=N/NC(N)=O)c1 3.39 µM

Dear colleague, I am looking for the recorded AC35 of the following molecule: COc1ccc(OC)c(Nc2nc(-c3c(C)nc4ncccn34)cs2)c1 1.1 µM

Dear colleague, I am looking for the recorded AC35 of the following molecule: CCOc1ccc2[nH]c3c(N4CCc5ccccc5C4)ncnc3c2c1 4.26 µM

Dear colleague, I am looking for the recorded AC35 of the following molecule: COc1cccc(N2CCN(C(=O)c3[nH]c(C)c(C(C)=O)c3C)CC2)c1 4.89 µM

Dear colleague, I am looking for the recorded AC35 of the following molecule: CCC(Cc1ccccc1)NC(=O)c1ccc2nc(N3CCOCC3)sc2c1 (configuration not stated) 0.48 µM

Dear colleague, I am looking for the recorded AC35 of the following molecule: CCOC(=O)c1c(C)[nH]c(C(=O)N/N=C/c2ccc(OC)c(OC)c2)c1C 0.526 µM

* * *

List of AC35 values.
test system: D54 LucT luciferase reporter counterscreen, luminescence, 24 h; assay: reporter signal increase, D54 LucT cells – cell-based, luminescence, cherry pick, counter-screen for N-linked glycosylation inhibitor project, dose response (AID 624404)
Records with an inconclusive call do not appear.

| molecule | measurement |
| --- | --- |
| CCOC(=O)c1c(C)c(C(=O)Nc2cc(F)ccc2F)c(C)n1C | 3020 nM |
| N#Cc1ccc(-c2cccs2)nc1SCc1cccnc1 | 848 nM |
| CC[C@]12c3[nH]c4cc(CCC(=O)N(C)C)ccc4c3CCN1C(=O)[C@@H](CC(=O)NC/C=C(\C)CCC=C(C)C)C[C@@H]2C(=O)N1CCN(C(=O)c2ccco2)CC1 | 267 nM |
| Cc1cc(=O)oc2cc(OCC3CC(c4ccccc4)=NO3)ccc12 (centres undefined) | 1540 nM |
| COc1ccc(/C=C/C(=O)c2c(O)cc(OC)cc2OC)cc1 | 3210 nM |
| Cc1ccc(SCC(=O)Nc2ccc(-c3nc4ccccc4[nH]3)cc2)cc1 | 337 nM |

Dear colleague, I am looking for the recorded AC35 of the following molecule: Cc1ccnc(NC(=O)CCCOc2cc(=O)n(C)c3ccccc23)c1 3220 nM

Dear colleague, I am looking for the recorded AC35 of the following molecule: CC[C@H](C)C(=O)O[C@H]1C[C@@H](C)C=C2C=C[C@H](C)[C@H](CC[C@@H]3C[C@@H](O)CC(=O)O3)[C@H]21 695 nM

Dear colleague, I am looking for the recorded AC35 of the following molecule: O=C(Nc1ccc(Cc2ccncc2)cc1)c1ccc([N+](=O)[O-])o1 2680 nM

* * *

system: D54 LucT luciferase reporter counterscreen, luminescence, 24 h; assay: reporter signal increase, D54 LucT cells – cell-based, luminescence, cherry pick, counter-screen for N-linked glycosylation inhibitor project, dose response (AID 624404)
Records with an inconclusive call do not appear.
assay.metric: AC35

Solved cases below.
| molecule | target.of.assay | AC35 |
| --- | --- | --- |
| C[C@@H](NC(=O)c1nc[nH]c1C(=O)N1CCN(c2ccccc2)CC1)c1ccccc1 | D54 LucT luciferase reporter counterscreen, luminescence, 24 h | 1830 nM |
| Cc1ccc2nsnc2c1NC(=O)c1ccc(-c2cc(Cl)ccc2Cl)o1 | D54 LucT luciferase reporter counterscreen, luminescence, 24 h | 1550 nM |
| COc1ccc(Nc2nc(N(C)c3ccccc3)nc(N)c2[N+](=O)[O-])cc1 | D54 LucT luciferase reporter counterscreen, luminescence, 24 h | 171 nM |
| NC(=O)CC(NC(=O)c1ccc(Br)cc1)c1ccc(N2CCCCCC2)c([N+](=O)[O-])c1 (stereo not given) | D54 LucT luciferase reporter counterscreen, luminescence, 24 h | 1090 nM |
| Cn1c(SCC(=O)c2ccccc2)ncc(C(=O)Nc2ccccc2)c1=O | D54 LucT luciferase reporter counterscreen, luminescence, 24 h | 382 nM |

Dear colleague, I am looking for the recorded AC35 of the following molecule: CCN(CC)S(=O)(=O)c1cccc(C(=O)OCC(=O)Nc2ccc3c(c2)c2ccccc2n3CC)c1 1390 nM

Dear colleague, I am looking for the recorded AC35 of the following molecule: Cc1cccc(N2CCN(C(=O)c3cc(S(=O)(=O)N4CCCC4)cn3C)CC2)c1C 33.3 nM

Dear colleague, I am looking for the recorded AC35 of the following molecule: Cc1c(Cl)cccc1Nc1nc(N)nc(CN2CCc3ccccc3C2)n1 614 nM

Dear colleague, I am looking for the recorded AC35 of the following molecule: COc1cc(C(=O)N/N=C/c2ccc3c(c2)c2ccccc2n3C)ccc1O 9590 nM

Dear colleague, I am looking for the recorded AC35 of the following molecule: COc1cccc(C2=NOC(C(=O)NCc3ccccc3)C2)c1 (stereo not given) 102 nM

Dear colleague, I am looking for the recorded AC35 of the following molecule: Cc1ccc(C2=NN(C(=O)CSc3nccn3C)C(c3ccco3)C2)cc1 (stereo not given) 323 nM

Dear colleague, I am looking for the recorded AC35 of the following molecule: Cc1cc(C)c2c(N)c3cccc(C)c3nc2n1 5820 nM

Dear colleague, I am looking for the recorded AC35 of the following molecule: COc1ccc2c(c1)[C@H]1[C@H](CO2)[C@H](c2ccccc2)[C@]2(C)C(=O)Nc3cc(F)ccc3C(=O)N12 326 nM

Dear colleague, I am looking for the recorded AC35 of the following molecule: CCOc1ccc(N2C(=O)Nc3ccccc3C2(O)C(=O)N2CCN(c3ccccn3)CC2)cc1 (stereo not given) 1200 nM

Dear colleague, I am looking for the recorded AC35 of the following molecule: O=C1Cc2c([nH]c3ccc(Br)cc23)-c2ccccc2N1 2.52 nM

Dear colleague, I am looking for the recorded AC35 of the following molecule: Nc1nc(CN2CCN(Cc3ccccc3)CC2)nc(Nc2ccc3c(c2)OCCO3)n1 251 nM

Dear colleague, I am looking for the recorded AC35 of the following molecule: CCOC(=O)N1CCc2cc(OC)c(OC)c3c2c1cc1cc(OC)c(OC)cc13 1940 nM

Dear colleague, I am looking for the recorded AC35 of the following molecule: CC(C)(C)c1ccc(OCc2ccc(C(=O)Nc3cccnc3)o2)cc1 519 nM

Dear colleague, I am looking for the recorded AC35 of the following molecule: C=CCn1c(O)c(C(CC)=NC(C)c2ccccc2)c(=O)[nH]c1=O (stereo not given) 1080 nM

Dear colleague, I am looking for the recorded AC35 of the following molecule: O=C1[C@H]2[C@@H](c3ccc(F)cc3)N3C(=O)N(c4cccc(Cl)c4)C(=O)[C@@]3(Cc3ccccc3)[C@H]2C(=O)N1C1CCCCC1 1060 nM
